system: P388 leukemia ip, CD2F1 mice, survival T/C; assay: NCI In Vivo Anticancer Drug Screen. Data for tumor model P388 Leukemia (intraperitoneal) in CD2F1 (CDF1) mice; conditions: endpoint: median survival time; dose: 400.0 mg/kg/injection; schedule: Q01DX009 (ip); vehicle: saline with Tween-80; higher = longer survival
Inconclusive results and toxic doses are left out.

{"columns": ["COMPOUND", "T/C"],
 "data": [
  ["Cc1ccc(S(=O)(=O)N/N=C/c2cccs2)cc1", "102 % of control"],
  ["COC1C(OC(=O)c2ccc(C)[nH]2)C(O)C(Oc2ccc3c(O)c(NC(=O)c4c[nH]c(C(=O)Nc5c(O)c6ccc(OC7OC(C)(C)C(OC)C(OC(=O)c8ccc(C)[nH]8)C7O)c(C)c6oc5=O)c4C)c(=O)oc3c2C)OC1(C)C (configuration not stated)", "100 % of control"],
  ["CC(C)Cc1c[nH]c(=O)[nH]c1=O", "91 % of control"],
  ["CC(=Nc1ccccc1)C1=C(O)C(CC(C)C)NC1=O (configuration not stated)", "110 % of control"],
  ["CCOC(=O)c1ccc(NC(=S)Nc2ccc(C(=O)OCC)cc2)cc1", "90 % of control"],
  ["CC(C)=CC(=O)O", "90 % of control"],
  ["Cc1cc2cc3c(C)cc(=O)oc3c(C)c2o1", "102 % of control"]
]}

----------
system: P388 leukemia ip, CD2F1 mice, survival T/C; experiment: NCI In Vivo Anticancer Drug Screen. Data for tumor model P388 Leukemia (intraperitoneal) in CD2F1 (CDF1) mice; conditions: endpoint: median survival time; dose: 200.0 mg/kg/injection; schedule: Q01DX005 (ip); vehicle: saline with Tween-80; higher = longer survival
Toxic doses and inconclusive results are not listed.
# T/C values compiled below

{"columns": ["COMPOUND", "T/C"],
 "data": [
  ["Cc1cc(=O)c2ccc3c(c2[nH]1)Oc1ccc2c(=O)cc(C)[nH]c2c1O3", "98 % of control"],
  ["CCCCCCCCCCCC(=O)NCCOCCOCCOCCOCCOCCOCCOCCOCCO (tested in a mixture with another compound)", "96 % of control"],
  ["COc1ccc(S(=O)(=O)NN=C(C(=O)O)C(=O)O)cc1", "109 % of control"],
  ["C[Si](C)(C)Cn1ccc(=O)n(C[Si](C)(C)C)c1=O", "107 % of control"],
  ["CCO/C(C)=N/NC(=O)c1n[nH]c2ccccc12", "90 % of control"],
  ["O=C(Nc1cccc2c1CCCC2)c1cc2ccccc2cc1O", "91 % of control"],
  ["Cc1ccc2nc3c(nc2c1)n(-c1ccccc1)c(=O)n3-c1cccc(Cl)c1", "101 % of control"],
  ["CCOC(=Nc1ccc(F)cc1)SC(c1ccccc1)(c1ccccc1)c1ccccc1", "99 % of control"],
  ["CC(C)(C)OC(=O)NC(CCC(=O)O)C(=O)O (stereo not given)", "103 % of control"],
  ["O=C1CSc2nc3ccc(Cl)cc3c(=O)n21", "104 % of control"],
  ["COC(=O)c1c(-c2ccc3c(c2)OCO3)cn(C)c1C", "87 % of control"],
  ["O=c1[nH]c(=O)c2c(Cl)cccc2[nH]1", "91 % of control"],
  ["CCSC(C(OC(C)=O)C(OC(C)=O)C(OC(C)=O)C(COC(C)=O)OC(C)=O)n1cnc2c(=S)nc[nH]c21 (stereo not given)", "87 % of control"],
  ["CC1OCC(O)C(C(O)C(=O)CN(Cc2ccccc2)Cc2ccccc2)O1 (stereo not given)", "91 % of control"],
  ["CC1(C)COC2(C)ON12 (stereo not given)", "113 % of control"]
]}

These entries and their values trace back to PubChem BioAssay AID330.
